assay: chemical genetic growth profiling, strain panel (AID 1159580);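 also: tested at 20 µM; growth read once vehicle control cultures reached saturation at 30 °C; 1 = growth at the plate median or of vehicle wells; lower values mean less growth of the strain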; conditions: S. cerevisiae deletion strains, growth OD, locus YBR229C, strain ROT2, stronger effect = lower value
The campaign covered roughly 5,500 compounds. About 2,000 (36%) were called active. Roughly 18% stayed inconclusive and do not appear here. The list shows a part of the results.
Reported normalized growth by item:
Lab note: record the figure alone, no unit after it.

Past entries and their recorded results:
Compound | normalized growth
COc1cc(NC(=O)Nc2ccc(OC(F)(F)F)cc2)cc(C(F)(F)F)c1 | 0.987
CCOC(=N)c1ccc(F)c(Cl)c1 | 0.995
Cc1ccc(/C(C#N)=C2C=C/C(=N/O)C(Cl)=C\2Cl)cc1 | 0.961
C[C@]12CCC3C(CC[C@H]4C[C@@H](O)CC[C@]34C)C1CCC2=O (stereo partly drawn) | 1.02
CC(C)(C)c1cc(C(C)(C)C)n(-c2ccc([N+](=O)[O-])cc2)n1 | 1.01

Q) Form field: reported normalized growth of `COP(=S)(OC)SCn1nnc2ccccc2c1=O`
A) 0.955

Q) Form field: reported normalized growth of `CC(C)(C)c1cc(C(C)(C)C)n(-c2ccc(N=Cc3cc(Br)cc(Br)c3O)cc2)n1`
A) 0.204

Q) Form field: reported normalized growth of C[C@]12CCC3C(CC[C@H]4C[C@@H](Cl)CC[C@]34C)C1CCC2=O (stereo partly drawn)
A) 1.03

FYI, the data here is from PubChem BioAssay AID1159580.
